- test: chemical genetic growth profiling, strain panel (AID 1159580);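 also: tested at 20 µM; growth read once vehicle control cultures reached saturation at 30 °C; 1 = growth at the plate median or of vehicle wells; lower values mean less growth of the strain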
- assay-setup: S. cerevisiae deletion strains, growth OD, locus YLR357W, strain rsc2, stronger effect = lower value
In all, about 5,500 compounds went through this assay and about 2,000 (36%) were called active. Not shown: some 18% with an inconclusive outcome. This is one part of the list.
Would you mind telling me the reported normalized growth of each entry?
Numbers only.

The following compounds each have a reported value; give each one's normalized growth.
1. C=C1C(=O)[C@]23[C@H](O)[C@H]1CC[C@H]2[C@@]12CO[C@]3(O)[C@H](O)[C@@H]1C(C)(C)CC[C@@H]2O
2. CC(=O)O[C@]1(C)CC[C@@]23CC1C(C)(C)[C@@H]2CC[C@H]3C
3. CC(=O)O[C@H]1C[C@@H](OC(C)=O)C(C)(C)C2C[C@@H](OC(C)=O)[C@]3(C)C(CC[C@@]4(C)[C@H](c5ccoc5)OC(=O)[C@H]5O[C@]543)[C@]21C (stereo not given in full)

[0.999, 0.989, 0.997]

The following compounds each have a reported value; give each one's normalized growth.
1. COc1ccc2nc(S(=O)Cc3ncc(C)c(OC)c3C)[nH]c2c1 (stereo not given)
2. CN1CCC[C@@H]1CCO[C@](C)(c1ccccc1)c1ccc(Cl)cc1
3. CN(C)CCC(c1ccccc1)c1ccccn1 (stereo not given)
4. COC(=O)/C(C)=C\CC12OC(C)(C)C3CC(C=C4C(=O)c5c(OC)c6c(c(CC=C(C)C)c5OC431)OC(C)(CCC=C(C)C)C=C6)C2=O (stereo not given)
5. CC1(C)N([O-])[N+](=O)C1(C)Br (stereo not given)

1
1.01
1.02
1.01
0.999

The following compounds each have a reported value; give each one's normalized growth.
1. NC1(C(=O)O)CC1
2. NC1(C(=O)O)CCCC1

1: 1.02; 2: 1.02
